Molecular target: T1, human DR3 (full length, on cells) (human, UniProt Q93038 25-417)
T1 sequence: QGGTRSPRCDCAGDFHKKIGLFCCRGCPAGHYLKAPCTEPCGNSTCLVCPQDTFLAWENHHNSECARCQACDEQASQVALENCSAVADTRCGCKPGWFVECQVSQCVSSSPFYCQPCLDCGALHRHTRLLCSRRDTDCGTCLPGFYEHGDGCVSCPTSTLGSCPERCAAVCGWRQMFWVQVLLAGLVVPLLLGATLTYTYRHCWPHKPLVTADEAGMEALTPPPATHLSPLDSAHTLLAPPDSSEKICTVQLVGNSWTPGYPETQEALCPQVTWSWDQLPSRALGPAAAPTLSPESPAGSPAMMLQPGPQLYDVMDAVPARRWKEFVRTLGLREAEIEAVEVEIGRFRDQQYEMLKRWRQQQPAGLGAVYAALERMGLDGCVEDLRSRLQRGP
Test: cell-based or functional assay
The binders listed here are annotated with their IC50 at 40 ng/ml TL1A, I5 reporter cells.
Please give a number only; it is taken to be in nM.

Binder | Recorded Number
0152 (chimeric Fab of 50F191, human IgG4 constant domain, hinge Cys->Ser) (Fab, V domains shown, IgG4-Ser, chimeric) VH: EVQLVESGGGLVEPGGSLKLSCAASGFTFSTYAMSWVRQSPEKRLEWVAEISSGDSYTYYPDIVTGRFTISRDDAKNTLFLEMSSLRSEDTAIYYCVRDQDYRYDGYYAMDHWGQGTSVTVSS VL: DIVLTQSPASLAVSLGQRATISCRASESVEHYGTSLMQWYQQKPGQPPKLLIYAASNVESGVPARFSGRGSGPDFSLNIHPVEEDDIAMYFCQQSRRIPWTFGGGTKLEIKR | 2.1

Okay, now this binder:
Reported IC50 at 40 ng/ml TL1A, I5 reporter cells, binder 0124 (chimeric Fab of 28F26, human IgG4 constant domain, hinge Cys->Ser) (Fab, V domains shown, murine variable domains, human IgG4 constant domain (IgG4-Ser)) VH: EVKVVESGGGLVKPGGSLKLSCAASGFVFSSYDMSWVRQIPEKRLEWVAAISSGDYYTYYPDSVKGRFTISRDDARNTLYLQMSSLRSEDTALYYCARHRGGNYPQYAMDYWGQGTSVTVSS VL: DILLTQSPASFAVSLGQRATISCRASKSVSTSGYNYIHWYQQKPGQPPKLLIYLTSNLESGVPARFSGSGSGTDFTLNIHPVEEEDAATYYCQHSRELPFTFGSGTKLEIKR : ____ 2.4
